# test system: biotinylated labeled human GPC3 protein (produced in-house) (human, UniProt P51654 25-559, limits assumed, biotinylated (Dojindo, Cat. No. LK03); sites not stated)
# assay text: ELISA, biotinylated human GPC3 protein
Checkbox rule: OD450 at 2.67 nM lower than 2 OD450 = t; OD450 at 2.67 nM not lower than 2 OD450 = f.

// below: answered binders
1. hAb006LH1L1b (antibody, human IgG1, V domains shown, Humanized F3.38.7; VH H1 + VL L1b; expressed as human IgG1) VH: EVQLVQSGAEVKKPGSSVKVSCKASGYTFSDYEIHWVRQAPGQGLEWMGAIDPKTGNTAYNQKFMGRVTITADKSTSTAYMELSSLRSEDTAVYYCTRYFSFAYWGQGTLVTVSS VL: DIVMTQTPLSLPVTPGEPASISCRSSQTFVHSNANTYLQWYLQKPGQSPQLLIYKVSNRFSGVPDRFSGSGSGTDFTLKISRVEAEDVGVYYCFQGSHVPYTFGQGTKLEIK :: f
2. hAb005LH2L1 (antibody, human IgG1, V domains shown, Humanized F3.54.12; VH H2 + VL L1; expressed as human IgG1) VH: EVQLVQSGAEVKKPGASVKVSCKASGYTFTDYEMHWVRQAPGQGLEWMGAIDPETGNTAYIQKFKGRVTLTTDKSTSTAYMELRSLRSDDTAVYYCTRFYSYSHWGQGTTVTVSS VL: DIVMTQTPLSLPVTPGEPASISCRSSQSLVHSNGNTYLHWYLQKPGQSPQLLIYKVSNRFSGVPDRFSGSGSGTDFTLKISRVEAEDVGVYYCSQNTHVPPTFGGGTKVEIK :: t
3. hAb001H2L1a (antibody, human IgG1, V domains shown, Humanized F2.169.2; VH H2 + VL L1a; expressed as human IgG1) VH: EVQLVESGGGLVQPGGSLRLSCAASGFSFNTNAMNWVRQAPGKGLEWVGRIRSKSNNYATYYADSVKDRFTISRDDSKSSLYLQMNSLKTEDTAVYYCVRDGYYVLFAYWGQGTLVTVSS VL: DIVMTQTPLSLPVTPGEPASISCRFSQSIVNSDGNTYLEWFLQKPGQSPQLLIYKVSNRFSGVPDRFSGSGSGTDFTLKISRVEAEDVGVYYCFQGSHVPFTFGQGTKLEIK :: f

Please state whether OD450 at 2.67 nM is below 2 OD450 for hAb005LH3L1a (antibody, human IgG1, V domains shown, Humanized F3.54.12; VH H3 + VL L1a; expressed as human IgG1) VH: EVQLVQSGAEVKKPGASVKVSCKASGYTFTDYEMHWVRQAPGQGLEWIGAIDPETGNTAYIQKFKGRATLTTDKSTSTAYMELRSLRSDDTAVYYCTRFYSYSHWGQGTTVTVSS VL: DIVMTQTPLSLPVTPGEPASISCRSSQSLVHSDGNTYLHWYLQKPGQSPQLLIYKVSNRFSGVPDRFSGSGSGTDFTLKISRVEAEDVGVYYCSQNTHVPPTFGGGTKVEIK
t

Problem: For the binder hAb001H2L1b (antibody, human IgG1, V domains shown, Humanized F2.169.2; VH H2 + VL L1b; expressed as human IgG1) VH: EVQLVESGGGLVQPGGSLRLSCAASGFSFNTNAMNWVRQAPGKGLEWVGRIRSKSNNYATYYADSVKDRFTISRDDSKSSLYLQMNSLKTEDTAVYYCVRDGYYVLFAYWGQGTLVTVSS VL: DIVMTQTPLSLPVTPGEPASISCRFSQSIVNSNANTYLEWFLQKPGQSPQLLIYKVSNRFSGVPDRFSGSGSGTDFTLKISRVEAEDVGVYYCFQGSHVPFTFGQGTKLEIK , is OD450 at 2.67 nM under 2 OD450?
f
